# study system: NAMPT (Homo sapiens, UniProt P43490)
# Sequence (P43490 whole entry): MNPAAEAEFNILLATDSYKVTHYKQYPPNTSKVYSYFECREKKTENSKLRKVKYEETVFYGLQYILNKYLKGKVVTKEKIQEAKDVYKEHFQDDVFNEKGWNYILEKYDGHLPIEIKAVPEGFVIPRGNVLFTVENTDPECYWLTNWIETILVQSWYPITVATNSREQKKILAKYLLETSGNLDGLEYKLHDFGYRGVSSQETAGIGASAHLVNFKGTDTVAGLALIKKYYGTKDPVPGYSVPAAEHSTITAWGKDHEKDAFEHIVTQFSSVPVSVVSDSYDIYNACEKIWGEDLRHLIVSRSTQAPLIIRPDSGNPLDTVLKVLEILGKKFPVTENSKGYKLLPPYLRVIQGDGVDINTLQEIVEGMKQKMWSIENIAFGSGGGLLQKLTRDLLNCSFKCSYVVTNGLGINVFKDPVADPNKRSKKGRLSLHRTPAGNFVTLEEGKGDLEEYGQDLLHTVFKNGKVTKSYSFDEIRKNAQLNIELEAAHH
# assay procedure: Fluorescence polarization binding assay
value type: Kd

Note down Kd recorded for C[C@@H]1O[C@@H](Oc2c(-c3ccc(O)c(O)c3)oc3cc(O)cc(O)c3c2=O)[C@H](O)[C@H](O)[C@H]1O [quercitrin] 16 µM
